All values here come from patent US7687609B2.

# Measured On: Galectin-9N (Homo sapiens, UniProt O00182)
# Construct: N and C respectively represent N-terminal side carbohydrate-recognition domain and C-terminal side carbohydrate-recognition domain; made in house
# Sequence (O00182 17-148 limits assumed): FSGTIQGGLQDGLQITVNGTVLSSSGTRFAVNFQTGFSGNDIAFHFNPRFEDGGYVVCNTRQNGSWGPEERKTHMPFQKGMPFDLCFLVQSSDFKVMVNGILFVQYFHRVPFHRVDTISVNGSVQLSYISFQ
# Method Notes: FAC affinity test on galectin-immobilized column
# Assay type: binding
# Measurement Context: pyridyl-aminated carbohydrate; galectin-9N immobilized 3.6 mg/ml; less than 5 μl = below interaction detection limit
Record form. Attribute: V − V0 Value. Fill in for each entry.

Ask | Under Galectin-9N (Homo sapiens, UniProt O00182): V − V0 Value value of CC(=O)N[C@H]1[C@H](O[C@H]2[C@H](O)[C@@H](O)[C@H](O[C@H]3[C@@H](O)[C@@H](CO)O[C@@H](O[C@H]4[C@H](O)[C@@H](O)[C@H](O[C@H]5[C@@H](O)[C@@H](CO)OC(O)[C@@H]5NC(C)=O)O[C@@H]4C(=O)O)[C@@H]3NC(C)=O)O[C@@H]2C(=O)O)O[C@H](CO)[C@H](O)[C@@H]1O (stereo partly drawn) ?
Reply | 45.6 ± 4.6 µL

Ask | Under Galectin-9N (Homo sapiens, UniProt O00182): V − V0 Value value of CC(=O)N[C@H]1[C@H](O[C@H]2[C@@H](O)[C@@H](COS(=O)(=O)O)O[C@@H](O[C@H]3[C@H](O)[C@@H](NC(C)=O)C(O)O[C@@H]3COS(=O)(=O)O)[C@@H]2O)O[C@H](COS(=O)(=O)O)[C@@H](O[C@@H]2O[C@H](CO)[C@H](O)[C@H](O)[C@H]2O)[C@@H]1O (stereo partly drawn) ?
Reply | 6.6 ± 1.4 µL

Ask | Under Galectin-9N (Homo sapiens, UniProt O00182): V − V0 Value value of CC(=O)N[C@H]1[C@H](O[C@H]2[C@@H](O)[C@@H](CO)O[C@@H](O[C@H]3[C@H](O)[C@@H](NC(C)=O)C(O)O[C@@H]3CO)[C@@H]2O)O[C@H](CO)[C@@H](O)[C@@H]1O (stereo partly drawn) ?
Reply | 13.6 ± 0.5 µL

###

# Measured On: Galectin-9N (Homo sapiens, UniProt O00182)
# Construct: N and C respectively represent N-terminal side carbohydrate-recognition domain and C-terminal side carbohydrate-recognition domain; made in house
# Method Notes: FAC affinity test on galectin-immobilized column
# Assay type: binding
# Measurement Context: pyridyl-aminated carbohydrate; galectin-9N immobilized 3.6 mg/ml; less than 5 μl = below interaction detection limit
Record form. Attribute: V − V0 Value. Fill in for each entry.
Note: a bare number is incomplete; add the unit.

Ask | Under Galectin-9N (Homo sapiens, UniProt O00182): V − V0 Value value of CC(=O)NC1C(O)OC(CO)C(O)C1OC1OC(C(=O)O)C(OC2OC(CO)C(O)C(OC3OC(C(=O)O)C(OC4OC(CO)C(O)C(OC5OC(C(=O)O)C(OC6OC(CO)C(O)C(OC7OC(C(=O)O)C(OC8OC(CO)C(O)C(OC9OC(C(=O)O)C(OC%10OC(CO)C(O)C(OC%11OC(C(=O)O)C(O)C(O)C%11O)C%10NC(C)=O)C(O)C9O)C8NC(C)=O)C(O)C7O)C6NC(C)=O)C(O)C5O)C4NC(C)=O)C(O)C3O)C2NC(C)=O)C(O)C1O (stereo not drawn) ?
Reply | 196.0 µL

Ask | Under Galectin-9N (Homo sapiens, UniProt O00182): V − V0 Value value of CC(=O)N[C@H]1[C@H](O[C@H]2[C@H](O)[C@@H](O)[C@H](O[C@H]3[C@@H](O)[C@@H](CO)OC(O)[C@@H]3NC(C)=O)O[C@@H]2C(=O)O)O[C@H](CO)[C@H](O)[C@@H]1O (stereo partly drawn) ?
Reply | 49.6 ± 8.2 µL

Ask | Under Galectin-9N (Homo sapiens, UniProt O00182): V − V0 Value value of CC(=O)N[C@H]1[C@H](O[C@H]2[C@H](O)[C@@H](O)[C@H](O[C@H]3[C@@H](O)[C@@H](CO)OC(O)[C@@H]3NC(C)=O)O[C@@H]2C(=O)O)O[C@H](CO)[C@H](O)[C@@H]1O[C@@H]1O[C@H](C(=O)O)[C@@H](O)[C@H](O)[C@H]1O (stereo partly drawn) ?
Reply | 45.3 ± 4.8 µL

###

# Measured On: Galectin-1 (Homo sapiens)
# Construct: made in house
# Method Notes: FAC affinity test on galectin-immobilized column
# Assay type: binding
# Measurement Context: pyridyl-aminated carbohydrate; galectin-1 immobilized 0.8 mg/ml; less than 5 μl = below interaction detection limit
Record form. Attribute: V − V0 Value. Fill in for each entry.

Ask | V − V0 Value for CC(=O)N[C@H]1[C@H](O[C@H]2[C@@H](O)[C@@H](CO)O[C@@H](O[C@H]3[C@H](O)[C@@H](NC(C)=O)C(O)O[C@@H]3CO)[C@@H]2O)O[C@H](CO)[C@@H](O)[C@@H]1O (stereo partly drawn) [G1L1, GlcNAc β1-3 Gal β1-4 GlcNAc] ?
Reply | <5.0 µL

Ask | V − V0 Value for CC(=O)NC1C(OC2C(C(=O)O)OC(OC3C(O)C(CO)OC(OC4C(C(=O)O)OC(OC5C(O)C(CO)OC(OC6C(C(=O)O)OC(OC7C(O)C(CO)OC(OC8C(C(=O)O)OC(OC9C(O)C(CO)OC(O)C9NC(C)=O)C(O)C8O)C7NC(C)=O)C(O)C6O)C5NC(C)=O)C(O)C4O)C3NC(C)=O)C(O)C2O)OC(CO)C(O)C1O (stereo not drawn) [CH9, (GalNAc β1-4 GlcA β1-3)4 GalNAc] ?
Reply | <5.0 µL

Ask | V − V0 Value for CC(=O)N[C@H]1[C@H](O[C@H]2[C@H](O)[C@@H](O)[C@H](O[C@H]3[C@@H](O)[C@@H](CO)OC(O)[C@@H]3NC(C)=O)O[C@@H]2C(=O)O)O[C@H](CO)[C@H](O)[C@@H]1O[C@@H]1O[C@H](C(=O)O)[C@@H](O)[C@H](O)[C@H]1O (stereo partly drawn) [CH4, GlcA β1-3 GalNAc β1-4 GlcA β1-3 GalNAc] ?
Reply | <5.0 µL

###

# Measured On: Galectin-1 (Homo sapiens, UniProt P09382)
# Construct: made in house
# Sequence (P09382 whole entry): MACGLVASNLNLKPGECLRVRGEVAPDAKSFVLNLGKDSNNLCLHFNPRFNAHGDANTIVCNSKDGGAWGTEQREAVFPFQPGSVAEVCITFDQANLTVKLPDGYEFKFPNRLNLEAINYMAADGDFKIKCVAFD
# Method Notes: FAC affinity test on galectin-immobilized column
# Assay type: binding
# Measurement Context: pyridyl-aminated carbohydrate; galectin-1 immobilized 0.8 mg/ml; less than 5 μl = below interaction detection limit
Record form. Attribute: V − V0 Value. Fill in for each entry.

Ask | V − V0 Value for CC(=O)N[C@H]1[C@H](O[C@H]2[C@H](O)[C@@H](O)[C@H](O[C@H]3[C@@H](O)[C@@H](CO)O[C@@H](O[C@H]4[C@H](O)[C@@H](O)[C@H](O[C@H]5[C@@H](O)[C@@H](CO)OC(O)[C@@H]5NC(C)=O)O[C@@H]4C(=O)O)[C@@H]3NC(C)=O)O[C@@H]2C(=O)O)O[C@H](CO)[C@H](O)[C@@H]1O[C@@H]1O[C@H](C(=O)O)[C@@H](O)[C@H](O)[C@H]1O (stereo partly drawn) ?
Reply | <5.0 µL

Ask | V − V0 Value for CC(=O)N[C@H]1[C@H](O[C@H]2[C@@H](O)[C@@H](CO)OC(O)[C@@H]2O)O[C@H](CO)[C@@H](O[C@@H]2O[C@H](CO)[C@H](O)[C@H](O)[C@H]2O)[C@@H]1O (stereo partly drawn) ?
Reply | 21.8 ± 1.9 µL

Ask | V − V0 Value for CC(=O)N[C@H]1[C@H](O[C@H]2[C@H](O)[C@@H](O)[C@H](O[C@H]3[C@@H](O)[C@@H](CO)O[C@@H](O[C@H]4[C@H](O)[C@@H](O)[C@H](O[C@H]5[C@@H](O)[C@@H](CO)OC(O)[C@@H]5NC(C)=O)O[C@@H]4C(=O)O)[C@@H]3NC(C)=O)O[C@@H]2C(=O)O)O[C@H](CO)[C@H](O)[C@@H]1O (stereo partly drawn) ?
Reply | <5.0 µL

###

# Measured On: Galectin-3 (Homo sapiens, UniProt P17931)
# Construct: made in house
# Sequence (P17931 whole entry): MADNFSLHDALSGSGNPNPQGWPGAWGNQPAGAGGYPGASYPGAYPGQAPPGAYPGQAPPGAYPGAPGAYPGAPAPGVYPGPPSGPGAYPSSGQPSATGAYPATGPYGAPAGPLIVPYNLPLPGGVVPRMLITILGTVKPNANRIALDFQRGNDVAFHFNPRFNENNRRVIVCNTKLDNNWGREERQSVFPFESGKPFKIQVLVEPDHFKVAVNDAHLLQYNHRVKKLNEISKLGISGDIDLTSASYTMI
# Method Notes: FAC affinity test on galectin-immobilized column
# Format: binding
# Measurement Context: pyridyl-aminated carbohydrate; galectin-3 immobilized 0.5 mg/ml; less than 5 μl = below interaction detection limit
Record form. Attribute: V − V0 Value. Fill in for each entry.

Ask | V − V0 Value for CC(=O)N[C@H]1[C@H](O[C@H]2[C@H](O)[C@@H](O)[C@H](O[C@H]3[C@@H](O)[C@@H](CO)O[C@@H](O[C@H]4[C@H](O)[C@@H](O)[C@H](O[C@H]5[C@@H](O)[C@@H](CO)OC(O)[C@@H]5NC(C)=O)O[C@@H]4C(=O)O)[C@@H]3NC(C)=O)O[C@@H]2C(=O)O)O[C@H](CO)[C@H](O)[C@@H]1O (stereo partly drawn) [CH5, (GalNAc β1-4 GlcA β1-3)2 GalNAc] ?
Reply | <5.0 µL

Ask | V − V0 Value for CC(=O)N[C@H]1[C@H](O[C@H]2[C@@H](O)[C@@H](COS(=O)(=O)O)O[C@@H](O[C@H]3[C@H](O)[C@@H](NC(C)=O)C(O)O[C@@H]3COS(=O)(=O)O)[C@@H]2O)O[C@H](COS(=O)(=O)O)[C@@H](O)[C@@H]1O (stereo partly drawn) [G4L4, GlcNAc6S β1-3 Gal6S β1-4 GlcNAc6S] ?
Reply | <5.0 µL

Ask | V − V0 Value for CC(=O)N[C@H]1[C@H](O[C@H]2[C@H](O)[C@@H](O)[C@H](O[C@H]3[C@@H](O)[C@@H](CO)O[C@@H](O[C@H]4[C@H](O)[C@@H](O)[C@H](O[C@H]5[C@@H](O)[C@@H](CO)O[C@@H](O[C@H]6[C@H](O)[C@@H](O)[C@H](O[C@H]7[C@@H](O)[C@@H](CO)OC(O)[C@@H]7NC(C)=O)O[C@@H]6C(=O)O)[C@@H]5NC(C)=O)O[C@@H]4C(=O)O)[C@@H]3NC(C)=O)O[C@@H]2C(=O)O)O[C@H](CO)[C@H](O)[C@@H]1O[C@@H]1O[C@H](C(=O)O)[C@@H](O)[C@H](O)[C@H]1O (stereo partly drawn) [CH8] ?
Reply | 7.8 ± 1.9 µL
